Every entry's value here was drawn from patent US9394562B2.

tested on: oxidoreductase enzyme derived from Rhizobium sp. GIN611; test: Substrate specificity for glycone binding (α-/β-bonding); format: biochemical; conditions: nitrophenyl glycoside used as substrate of the enzyme
Provide the reported Relative activity (%) of each item.
State the value with its unit after it.

Known Relative activity (%) results, listed for orientation:
1) O=[N+]([O-])c1ccc(O[C@@H]2O[C@H](CO)[C@@H](O)[C@H](O)[C@H]2O)cc1 [p-Nitrophenyl β-D-glucopyranoside] :: 100%
2) O=[N+]([O-])c1ccc(O[C@H]2O[C@H](CO)[C@@H](O)[C@H](O)[C@H]2O)cc1 [p-Nitrophenyl α-D-glucopyranoside] :: 103%
3) O=[N+]([O-])c1ccc(O[C@@H]2O[C@H](CO)[C@H](O)[C@H](O)[C@H]2O)cc1 [p-Nitrophenyl β-D-galactopyranoside] :: 400%

Continue with the next compound.
Reported Relative activity (%) for O=[N+]([O-])c1ccc(O[C@H]2O[C@H](CO)[C@H](O)[C@H](O)[C@H]2O)cc1 [p-Nitrophenyl α-D-galactopyranoside] : what is it?
201%
